// values below are reported pEC50
# Target Or System: T1, human Claudin18.2 (human)
# T1 construct: also called CLDN18.2
# Experiment Summary: cell ELISA, Claudin18.2-expressing HEK293T cells
A value of pEC50 is the negative decimal logarithm of a concentration given in moles per litre.

Worked examples, 5 binders total:
Binder: 203A6C9 (antibody, V domains shown, mouse hybridoma mAb) VH: QVQLKQSGPGLVQPSQSLSITCTVSGFSLTRYGVHWVRQSPGKGLEWLGVIWSGGNTDYNAAFISRLNIRKDNSKSQVFFKMNSLKPNDTAIYYCARAAYFGNSFDYWGQGTTLTVSS VL: DIVMTQSPSSLPVTAGEKVTMSCKSSQSLLNSGNQKNYLTWYQQKPGQPPKLLIYWASTRDSGVPDRFTGSGSGTDFTLTISSVQAEDLAVYYCQNNYIYPLTFGAGTKLELK
pEC50: 9.04

Binder: 395B3C11 (antibody, V domains shown, mouse hybridoma mAb) VH: DVQLVESGGGLVQPGGSRKLSCAASGFTFSGFGMHWIRQTPEKGLEWVAYISSGSRPIYYADTVQGRFTISRDNPKNTLFLQMTSLRSEDTAMYFCARFYYGNSFDHWGQGTLVTVSS VL: DIVMTQSPSFLTVTAGEKVTMSCKSSQSLLNSGNQKNYLTWYQQKPGQPPKLLIYWASTRESGVPDRFTGSGSGTDFTLTISSVQAEDLALYYCQNAYSFPLTFGAGTKLELK
pEC50: 8.45

Binder: 231H4G11 (antibody, V domains shown, mouse hybridoma mAb) VH: QAYLQQSGAELVRSGASVKMSCKASGYTFTSHNIHWVKQTPGQGLEWIGYISPGNGYTNYNQKFRGKATLTADTSSSTAYMQISSLTSEDSAVYFCTRDYYGNSFAYWGQGTLVTVSA VL: DIVMTQSPSSLTEKAGERVSMSCKSSQSLFNSGSQKNYLTWYQQKPGQPPKLLIYWASTRESGVPDRFSGSGSGTDFTLTISSVQAEDLAVYYCQNNYWFPFTFGAGTKLELK
pEC50: 8.99

Binder: 411G3E10 (antibody, V domains shown, mouse hybridoma mAb) VH: DVQLVESGGGLVQPGGSRKLSCAASGFTFSGFGMHWIRQTPEKGLEWVAYISSGSRPIYYADTVKGRFTISRDNPKNTLFLQMTSLRSEDTAMYFCARFYYGNSFDHWGQGTLVTVSA VL: DIVMTQSPSFLTVTAGEKVTMNCRSSQSLLNSGNQKNYLTWYQQKPGQPPKLLIYWASTRESGVPDRFTGSGSGTDFTLTISSVQAEDLALYYCQNAYSFPLTFGAGTKLELK
pEC50: 8.61

Binder: 198F10B8 (antibody, V domains shown, mouse hybridoma mAb) VH: QAYLQQSGAELVRSGASVRMSCKASGYTFSSYNMHWVKQTPGQGLEWIGYIYPGNGGTNYNQKFKDKATLTADTSSSTAFIQISSLTSEDSAVYFCLTGRGFAYWGQGTLVTVSA VL: DIVMTQSPSSLTVTAGERVTMSCKSSQSLFNSGNQKNYLTWYQQKPGQPPKLLIYRASTRESGVPDRFTGSGSGTDFTLTISSVQAEDLAVYYCQNDYSYPLTFGVGTKLELK
pEC50: 8.74

Please look at the following binder next.
The binder identified as 392C2F10 (antibody, V domains shown, mouse hybridoma mAb) VH: EVQLQQSGPELVKPGASMKISCKASGYSFTGYTMNWVKQSLGKNLEWIGLINPFNGGTTYNQKFKGKATLTVDKSSSTAYMELLSLTSDDSAVYYCTRGDYWGQGTTLTVSS VL: DIVMTQSPSSLTVTAGEKVTMSCKSSQSLLNSGNQKNYLTWYQQKPGQPPKLLIYWASTRESGVPDRFAGSGSGTDFTLTISSVQAEDLAVYYCQSDYSYPTFGAGTKLELK registered its pEC50 at 6.46
